Data origin: ChEMBL document CHEMBL5154689

- measured target: Acetylcholinesterase (Electrophorus electricus, UniProt O42275)
- Sequence (O42275 whole entry): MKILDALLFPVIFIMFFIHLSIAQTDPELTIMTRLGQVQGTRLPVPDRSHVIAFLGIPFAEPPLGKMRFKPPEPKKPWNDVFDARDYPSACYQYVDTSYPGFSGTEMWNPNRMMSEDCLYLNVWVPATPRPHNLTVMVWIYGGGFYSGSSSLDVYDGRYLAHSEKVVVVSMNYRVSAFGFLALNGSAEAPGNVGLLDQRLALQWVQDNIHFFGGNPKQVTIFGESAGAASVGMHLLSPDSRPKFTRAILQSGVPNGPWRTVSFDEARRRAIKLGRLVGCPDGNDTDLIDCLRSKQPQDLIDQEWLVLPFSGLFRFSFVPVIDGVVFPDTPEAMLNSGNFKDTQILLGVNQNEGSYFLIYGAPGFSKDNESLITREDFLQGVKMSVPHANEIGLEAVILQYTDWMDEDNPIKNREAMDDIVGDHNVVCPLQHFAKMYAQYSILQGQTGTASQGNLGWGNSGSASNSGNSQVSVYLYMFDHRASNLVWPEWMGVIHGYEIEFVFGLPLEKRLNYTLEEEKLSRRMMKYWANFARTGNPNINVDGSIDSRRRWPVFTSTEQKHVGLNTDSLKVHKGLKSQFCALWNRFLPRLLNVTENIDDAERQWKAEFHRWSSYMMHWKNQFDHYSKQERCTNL
- experimental protocol: Inhibition of electric eel AChE using acetylthiocholine iodide as substrate preincubated with enzyme for 20 mins followed by substrate addition and measured after 20 mins by Ellman's method
measurement label: pIC50
One number for each entry, as −log10 of the molar value.

For each of the items listed, what is its pIC50?
1. Cc1ccc(CN2CCC(CNC(=O)c3ccc4c(c3)[nH]c3c(NC(=O)C5CC5)nccc34)CC2)cc1
2. O=C(NCC1CCN(Cc2ccc(Cl)cc2)CC1)c1ccc2c(c1)[nH]c1c(NC(=O)C3CC3)nccc12
3. COc1ccc2c(c1)[nH]c1c(C)nccc12
4. O=C(NCCC1CCN(Cc2cc(F)cc(F)c2)CC1)c1ccc2c(c1)[nH]c1c(NC(=O)C3CC3)nccc12

## Output
1. 5.52
2. 4.71
3. 5.00
4. 5.24

---

Answer each item with its documented IC50.
- measured target: Cholinesterase (Equus caballus)
- Sequence (P81908 whole entry): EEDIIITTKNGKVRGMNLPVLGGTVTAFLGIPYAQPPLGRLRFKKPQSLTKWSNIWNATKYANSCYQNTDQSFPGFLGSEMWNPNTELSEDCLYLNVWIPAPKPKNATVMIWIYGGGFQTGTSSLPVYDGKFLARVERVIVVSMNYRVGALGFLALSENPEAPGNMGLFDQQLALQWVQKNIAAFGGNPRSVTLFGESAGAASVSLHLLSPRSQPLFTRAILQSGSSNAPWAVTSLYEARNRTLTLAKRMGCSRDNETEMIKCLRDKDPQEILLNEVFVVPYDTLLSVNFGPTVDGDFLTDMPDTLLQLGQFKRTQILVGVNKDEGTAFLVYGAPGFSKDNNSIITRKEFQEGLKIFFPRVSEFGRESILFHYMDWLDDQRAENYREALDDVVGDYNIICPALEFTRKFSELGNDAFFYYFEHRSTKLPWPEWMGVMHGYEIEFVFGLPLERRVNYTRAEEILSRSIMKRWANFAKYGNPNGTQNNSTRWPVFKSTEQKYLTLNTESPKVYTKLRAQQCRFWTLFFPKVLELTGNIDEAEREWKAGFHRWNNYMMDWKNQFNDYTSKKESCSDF
- experimental protocol: Inhibition of equine serum BChE using butyrylthiocholine iodide as substrate preincubated with enzyme for 20 mins followed by substrate addition and measured after 20 mins by Ellman's method
- Assay type: cell-free

The examples below pair each entry with its known result.
1. O=C(NC1CCN(Cc2ccccc2)CC1)c1ccc2c(c1)[nH]c1c(NC(=O)C3CC3)nccc12
38.8 µM
2. O=C(NCCC1CCN(Cc2cccc([N+](=O)[O-])c2)CC1)c1ccc2c(c1)[nH]c1c(NC(=O)C3CC3)nccc12
> 50 µM
3. O=C(NC1CCN(Cc2cccc(F)c2)CC1)c1ccc2c(c1)[nH]c1c(NC(=O)C3CC3)nccc12
> 50 µM
4. O=C(NCC1CCN(Cc2ccc(F)cc2)CC1)c1ccc2c(c1)[nH]c1c(NC(=O)C3CC3)nccc12
> 50 µM
5. O=C(NCCC1CCN(Cc2c(Cl)cccc2Cl)CC1)c1ccc2c(c1)[nH]c1c(NC(=O)C3CC3)nccc12
> 50 µM

Would you be so kind as to report IC50 for each listed record?
1. O=C(NC1CCN(Cc2ccc(F)cc2)CC1)c1ccc2c(c1)[nH]c1c(NC(=O)C3CC3)nccc12
2. O=C(NCC1CCN(Cc2ccccc2F)CC1)c1ccc2c(c1)[nH]c1c(NC(=O)C3CC3)nccc12
3. COc1ccc2c(c1)[nH]c1c(C)nccc12 [HARMINE]

## Output
["> 50 µM", "34.2 µM", "13.6 µM"]

---

Field: Ratio IC50. Provide a value for each of the compounds that follow.
- experimental protocol: Selectivity index, ratio of IC50 for equine serum BChE to IC50 for electric eel AChE

Please review the entries below; each comes with its answer.
1. O=C(NCCC1CCN(Cc2ccccc2)CC1)c1ccc2c(c1)[nH]c1c(NC(=O)C3CC3)nccc12
30.2
2. O=C(NCC1CCN(Cc2cc(F)cc(F)c2)CC1)c1ccc2c(c1)[nH]c1c(NC(=O)C3CC3)nccc12
> 9.92
3. O=C(NCCC1CCN(Cc2cc(F)cc(F)c2)CC1)c1ccc2c(c1)[nH]c1c(NC(=O)C3CC3)nccc12
> 8.62
4. Cc1ccc(CN2CCC(CCNC(=O)c3ccc4c(c3)[nH]c3c(NC(=O)C5CC5)nccc34)CC2)cc1
> 18.2
5. O=C(NC1CCN(Cc2cccc([N+](=O)[O-])c2)CC1)c1ccc2c(c1)[nH]c1c(NC(=O)C3CC3)nccc12
> 18.1

Would you mind giving Ratio IC50 for every compound in the list below?
1. Cc1ccc(CN2CCC(NC(=O)c3ccc4c(c3)[nH]c3c(NC(=O)C5CC5)nccc34)CC2)cc1
2. O=C(NCCC1CCN(Cc2ccc(C(F)(F)F)cc2)CC1)c1ccc2c(c1)[nH]c1c(NC(=O)C3CC3)nccc12
3. O=C(NCCC1CCN(Cc2ccccc2F)CC1)c1ccc2c(c1)[nH]c1c(NC(=O)C3CC3)nccc12

## Output
["> 5.84", "> 1.6", 77.1]

For the 5 compounds below, give their Ratio IC50 values.
1. O=C(NCCC1CCN(Cc2c(Cl)cccc2Cl)CC1)c1ccc2c(c1)[nH]c1c(NC(=O)C3CC3)nccc12
2. O=C(NCC1CCN(Cc2ccc(F)cc2)CC1)c1ccc2c(c1)[nH]c1c(NC(=O)C3CC3)nccc12
3. Cc1ccc(CN2CCC(CNC(=O)c3ccc4c(c3)[nH]c3c(NC(=O)C5CC5)nccc34)CC2)cc1
4. O=C(NC1CCN(Cc2ccccc2F)CC1)c1ccc2c(c1)[nH]c1c(NC(=O)C3CC3)nccc12
5. O=C(NC1CCN(Cc2ccc(Cl)cc2)CC1)c1ccc2c(c1)[nH]c1c(NC(=O)C3CC3)nccc12

## Output
["> 56.2", "> 16.2", "> 16.6", "> 18.9", "> 2.64"]

// input: 2 compounds below; output: Ratio IC50 for each
1. O=C(NC1CCN(Cc2ccc(F)cc2)CC1)c1ccc2c(c1)[nH]c1c(NC(=O)C3CC3)nccc12
2. O=C(NC1CCN(Cc2ccc(C(F)(F)F)cc2)CC1)c1ccc2c(c1)[nH]c1c(NC(=O)C3CC3)nccc12

## Output
> 23.4
> 3.6

Hello, I would appreciate it if you could give Ratio IC50 for each entry below.
1. O=C(NCC1CCN(Cc2ccccc2F)CC1)c1ccc2c(c1)[nH]c1c(NC(=O)C3CC3)nccc12
2. O=C(NCC1CCN(Cc2c(Cl)cccc2Cl)CC1)c1ccc2c(c1)[nH]c1c(NC(=O)C3CC3)nccc12
3. O=C(NC1CCN(Cc2c(Cl)cccc2Cl)CC1)c1ccc2c(c1)[nH]c1c(NC(=O)C3CC3)nccc12
4. O=C(NCCC1CCN(Cc2ccc(F)cc2)CC1)c1ccc2c(c1)[nH]c1c(NC(=O)C3CC3)nccc12
5. O=C(NCCC1CCN(Cc2ccc(Cl)cc2)CC1)c1ccc2c(c1)[nH]c1c(NC(=O)C3CC3)nccc12
6. O=C(NC1CCN(Cc2ccccc2)CC1)c1ccc2c(c1)[nH]c1c(NC(=O)C3CC3)nccc12
7. O=C(NCC1CCN(Cc2cccc([N+](=O)[O-])c2)CC1)c1ccc2c(c1)[nH]c1c(NC(=O)C3CC3)nccc12

## Output
[40.7, "> 147", "> 24.9", 16.8, "> 3.35", 16.6, "> 24.4"]
